Tgt: sGC α1/β1 heterodimer (Homo sapiens (Human), UniProt Q02108+Q02153)
Test: Cell-based sGC functional assay (cyclic GMP assay for sGC activator: CASA assay)
Settings: CHO-K1, activity expressed as percentage of compound A (standard); CHO-K1/sGC cells; read-out: % Activation
Please go through the items and note down their Emax.
Give bare numbers, in %.

// for each compound below, give its Emax
1. CC[C@@H](NC(=O)CCc1ccc([C@]2(C)C(=O)Nc3nc(-c4nn(Cc5ccccc5F)c5ncccc45)nc(N)c32)cc1)C(=O)O [Example 104B]
2. CC1(c2nc(-c3ccc(C(=O)O)cc3)cs2)C(=O)Nc2nc(-c3nn(Cc4ccccc4F)c4cc(Cl)ccc34)nc(N)c21 (stereo not shown) [Example 165A]

Response:
1: 106; 2: 110

For every record below, what is its Emax?
1. CC1(c2ccc(CCC(=O)O)c(O)c2)C(=O)Nc2nc(-c3nn(CCC(F)(F)C(F)(F)F)c4cc(Cl)ccc34)nc(N)c21 (stereo not shown) [Example 122B]
2. CC1(c2nc(CC(=O)O)cs2)C(=O)Nc2nc(-c3nn(CCC(F)(F)C(F)(F)F)c4ncccc34)nc(N)c21 (stereo not shown) [Example 78A]
3. CC(C)(CCc1csc(C2(C)C(=O)Nc3nc(-c4nn(Cc5ccccc5F)c5cc(Cl)ccc45)nc(N)c32)n1)C(=O)O (stereo not shown) [Example 166A]
4. C[C@@]1(c2ccc(CCc3nn[nH]n3)cc2)C(=O)Nc2nc(-c3nn(Cc4ccccc4F)c4cc(Cl)ccc34)nc(N)c21 [Example 112B]
5. C[C@@]1(c2ccc(CCC(=O)O)cc2)C(=O)Nc2nc(-c3nn(Cc4ncccc4F)c4cc(Cl)ccc34)nc(N)c21 (single isomer, unassigned) [Example 57B]

Response:
115
93
86.4
130
104

* * *

Tgt: sGC α1/β1 heterodimer (Homo sapiens (Human), UniProt Q02108+Q02153)
Test: Cell-based sGC functional assay (cyclic GMP assay for sGC activator: CASA assay)
Settings: inflection point, 4P fit; CHO-K1/sGC cells; read-out: IP
Method: Cell-Based sGC Functional Assay (Cyclic GMP Assay for sGC Activator: CASA Assay) Soluble guanylate cyclase (sGC) is a heme-containing enzyme that converts GTP to secondary messenger cGMP. […] A CHO-K1 cell line stably expressing the sGC α1/β1 heterodimer was generated using a standard transfection protocol. […] The level of intracellular cGMP was determined using an HTRF-based assay kit (CisBio, 62GM2PEC), which detects the displacement of a fluorescence labeled cGMP from its specific antibody. […]
Record form. Attribute: pEC50. Fill in for each entry.
Give bare numbers, as −log10 of the molar value.

# map each compound to its pEC50
1. C[C@@]1(c2ccc(CCC(=O)O)cc2)C(=O)Nc2nc(-c3nn(Cc4ccccc4F)c4cc(F)ccc34)nc(N)c21 [Example 60B]
2. CC(C)(Cc1csc([C@]2(C)C(=O)Nc3nc(-c4nn(CC5CCCCO5)c5cc(F)ccc45)nc(N)c32)n1)C(=O)O (single isomer, unassigned) [Example 133AB]
3. CC1(c2cc(-c3nn[nH]n3)ccn2)C(=O)Nc2nc(-c3nn(Cc4ccccc4F)c4cc(Cl)ccc34)nc(N)c21 (stereo not drawn) [Example 243A]
4. CC1(c2ccc(CCP(=O)(O)O)cc2)C(=O)Nc2nc(-c3nn(Cc4ccccc4F)c4cc(Cl)ccc34)nc(N)c21 (stereo not drawn) [Example 257A]
5. CC(C)(Cc1coc(C2(C)C(=O)Nc3nc(-c4nn(Cc5c(F)ccc(F)c5F)c5cc(Cl)ccc45)nc(N)c32)n1)C(=O)O (stereo not drawn) [Example 189A]
6. CC(C)(Cc1coc(C2(C)C(=O)Nc3nc(-c4nn(CC5CCCCC5)c5ncccc45)nc(N)c32)n1)C(=O)O (stereo not drawn) [Example 152A]

Response:
1. 6.78
2. 6.15
3. 5.44
4. 6.97
5. 7.29
6. 6.92

* * *

Please respond with reported pKi for every item in the list.
Tgt: human recombinant sGC enzyme (Homo sapiens (Human), UniProt Q02108+Q02153)
Test: Size Exclusion Chromatography (SEC) competition binding assay using [3H] Ex-77B as the radioligand
Settings: [3H] Ex-77B radioligand, 24 hours at 37° C.
Protocol: Binding Assay: The binding potencies of sGC compounds to the human recombinant sGC enzyme were determined in a Size Exclusion Chromatography (SEC) competition binding assay using [^3H] Ex-77B as the radioligand. [^3H] […] The sealed plates were shaken vigorously and span, and counted after 6 hours with a Wallac Microbeta TriLux 1450 LSC & Luminescence Counter (Perkin Elmer). Data from competition experiments were analyzed to determine Ki values using one site fit Ki equation.
One number for each entry, as −log10 of the molar value.

Sample records with pKi:
CC1(c2nc(CCC(F)(F)C(=O)O)co2)C(=O)Nc2nc(-c3nn(Cc4ccccc4F)c4cc(Cl)ccc34)nc(N)c21 (centres unmarked) [Example 127A]; 10.24
Cc1oc(C2(C)C(=O)Nc3nc(-c4nn(Cc5cccc(F)c5)c5cc(F)ccc45)nc(N)c32)nc1CC(C)(C)C(=O)O (centres unmarked) [Example 198B]; 9.97
CC(C)(Cn1cc(C2(C)C(=O)Nc3nc(-c4nn(CCC(F)(F)C(F)(F)F)c5cc(Cl)ccc45)nc(N)c32)nn1)C(=O)O (centres unmarked) [Example 31B]; 8.85
C[C@@]1(c2ccc(CCC(=O)O)cc2)C(=O)Nc2nc(-c3nn(CCCC(F)(F)F)c4nc(Cl)ccc34)nc(N)c21 [Example 19B]; 9.54

Quick one: give me pKi for each item below, same order please.
1. CC(C)(Cc1csc([C@]2(C)C(=O)Nc3nc(-c4nn(Cc5c(F)ccc(F)c5F)c5cc(Cl)ccc45)nc(N)c32)n1)C(=O)O [Example 190A]
2. C[C@@]1(c2ccc(CCc3nn[nH]n3)cc2)C(=O)Nc2nc(-c3nn(Cc4ncccc4F)c4ccccc34)nc(N)c21 [Example 245B]
3. CC1(c2cccc(C(=O)O)n2)C(=O)Nc2nc(-c3nn(Cc4ccccc4F)c4cc(Cl)ccc34)nc(N)c21 (centres unmarked) [Example 255A]
4. Cc1cccc(Cn2nc(-c3nc(N)c4c(n3)NC(=O)C4(C)c3cnn(CC(C)(C)C(=O)O)c3)c3ccc(F)cc32)c1F (centres unmarked) [Example 211A]
5. CC1(c2ccc(CCC(=O)O)c(Br)c2)C(=O)Nc2nc(-c3nn(CCC(F)(F)C(F)(F)F)c4cc(Cl)ccc34)nc(N)c21 (centres unmarked)
6. CC1(c2cn(CC3(C(=O)O)CC3)nn2)C(=O)Nc2nc(-c3nn(CCC(F)(F)C(F)(F)F)c4cc(Cl)ccc34)nc(N)c21 (centres unmarked) [Example 32B]
7. CC(C)(Cc1csc([C@]2(C)C(=O)Nc3nc(-c4nn(CCC(F)(F)C(F)(F)F)c5ncccc45)nc(N)c32)n1)C(=O)NO [Example 97B]
8. CC(C)(Cc1coc(C2(C)C(=O)Nc3nc(-c4nn(CC5CCCCC5)c5ccccc45)nc(N)c32)n1)C(=O)O (centres unmarked) [Example 228A]

Response:
1: 10.51; 2: 9.48; 3: 10.14; 4: 9.59; 5: 9.41; 6: 8.77; 7: 9.10; 8: 10.10

For every item below, please supply its pKi.
1. CC1(c2ccc(-c3nn[nH]n3)cc2)C(=O)Nc2nc(-c3nn(Cc4ccccc4F)c4cc(F)ccc34)nc(N)c21 (centres unmarked) [Example 250B]
2. C[C@@]1(c2ccc(CCC(=O)O)cc2)C(=O)Nc2nc(-c3nn(CC4CC(F)(F)C4)c4cc(Cl)ccc34)nc(N)c21 [Example 163B]
3. CC(C)(Cn1cc(C2(C)C(=O)Nc3nc(-c4nn(Cc5ccccc5F)c5cc(Cl)ccc45)nc(N)c32)cn1)C(=O)O (centres unmarked) [Example 171A]
4. CCCCn1nc(-c2nc(N)c3c(n2)NC(=O)C3(C)c2cn(CC(=O)O)nn2)c2ccc(Cl)cc21 (centres unmarked) [Example 35B]
5. CC(C)(CCc1coc(C2(C)C(=O)Nc3nc(-c4nn(Cc5cccc(F)c5)c5cc(F)ccc45)nc(N)c32)n1)C(=O)O (centres unmarked) [Example 197B]

Response:
1. 9.97
2. 8.73
3. 10.03
4. 8.95
5. 9.79

For each of the molecules below, state pKi.
1. C[C@@]1(c2ccc(CCC(=O)O)cc2)C(=O)Nc2nc(-c3nn(Cc4ccccc4F)c4cc(F)ccc34)nc(N)c21 [Example 60B]
2. CC(C)(Cc1csc([C@]2(C)C(=O)Nc3nc(-c4nn(Cc5c(F)ccc(F)c5F)c5ccccc45)nc(N)c32)n1)C(=O)O [Example 224A]
3. C[C@@]1(c2ccc(CCC(=O)O)cc2)C(=O)Nc2nc(-c3nn(CCCC(F)(F)F)c4ncc(F)cc34)nc(N)c21 [Example 18B]
4. C[C@@]1(c2nc(CCC(=O)O)cs2)C(=O)Nc2nc(-c3nn(CCC(F)(F)C(F)(F)F)c4ncccc34)nc(N)c21 (single isomer, unassigned) [Example 82B]

Response:
[9.99, 10.17, 9.04, 9.65]

# batch: return pKi for each of the 5 molecules below
1. Cc1ccc(F)c(Cn2nc(-c3nc(N)c4c(n3)NC(=O)C4(C)c3nc(CC(C)(C)C(=O)O)co3)c3ccc(Cl)cc32)c1 (centres unmarked) [Example 213A]
2. CC1(c2ccc(Cc3nn[nH]n3)cc2)C(=O)Nc2nc(-c3nn(Cc4ccccc4F)c4cc(Cl)ccc34)nc(N)c21 (centres unmarked) [Example 244A]
3. CC(C)(Cc1csc([C@]2(C)C(=O)Nc3nc(-c4nn(Cc5ccccc5F)c5cc(Cl)ccc45)nc(N)c32)n1)C(=O)O [Example 95B]
4. CC(C)(Cc1csc([C@]2(C)C(=O)Nc3nc(-c4nn(Cc5ccccc5F)c5ncccc45)nc(N)c32)n1)C(=O)O [Example 90B]
5. CC1(N2CCC(CCC(=O)O)CC2)C(=O)Nc2nc(-c3nn(Cc4ccccc4F)c4cc(Cl)ccc34)nc(N)c21 (centres unmarked) [Example 262B]

Response:
[9.91, 10.20, 10.22, 10.20, 10.01]
